Each recorded value in this set is attributed to patent US10316021B2.

Reported CLint scaled at 2 μM values follow for various compounds
Experiment: In vitro intrinsic clearance in human liver microsomes
Assay type: in vitro ADME
Conditions: human, pH 7.4, human liver microsomes, read-out: HLM CLint

Compound: COc1nn(C)cc1[C@@H]1CCCN1Cc1ccc(Oc2ccc(C(N)=O)cc2)cc1 (single isomer, unassigned)
Measure name: CLint scaled at 2 μM
Test value: < 20 mL/min/kg
--
Compound: Cc1nn(C)cc1[C@@H]1CCCN1Cc1ccc(Oc2ccc(C(N)=O)cc2)cc1
Measure name: CLint scaled at 2 μM
Test value: < 20 mL/min/kg

Kindly consider the entry below.
Record summary for COc1nn(C)cc1C1CCCN1Cc1ccc(Oc2ccc(C(N)=O)cc2F)cc1 (single isomer, unassigned; (-)) : reported CLint scaled at 2 μM = < 20 mL/min/kg

* * *

# reported % KOR IVRO to achieve 50% PR reversal; entries follow
Target: kappa opioid receptor (Mus musculus, UniProt P33534)
Construct: from tissue; host or cells: brain of adult male C57BL/6J mice (in vivo)
Sequence (P33534 whole entry): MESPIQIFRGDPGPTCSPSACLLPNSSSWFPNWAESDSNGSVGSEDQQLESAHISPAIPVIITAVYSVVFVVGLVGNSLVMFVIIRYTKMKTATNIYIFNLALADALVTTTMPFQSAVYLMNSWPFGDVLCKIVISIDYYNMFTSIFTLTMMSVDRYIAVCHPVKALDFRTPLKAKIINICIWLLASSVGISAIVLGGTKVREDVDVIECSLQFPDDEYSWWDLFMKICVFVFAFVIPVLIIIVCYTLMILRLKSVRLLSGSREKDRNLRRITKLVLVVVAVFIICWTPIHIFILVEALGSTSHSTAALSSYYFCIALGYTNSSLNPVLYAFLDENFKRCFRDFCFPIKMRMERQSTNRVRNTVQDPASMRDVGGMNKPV
Assay: Progressive ratio responding (reversal of spiradoline-induced deficit in motivation)
Type: in vivo
Conditions: co-administered with spiradoline, receptor occupancy measured in a separate group of animals
Just the number in %, nothing appended.

Below are worked cases with known answers.
Molecule: Cc1cc(C)cc([C@@H]2CCCN2Cc2ccc(Oc3ccc(C(N)=O)cc3F)cc2)c1 [Comparator E, reference compound]
% KOR IVRO to achieve 50% PR reversal, %: 70

Molecule: Cc1nn(C)cc1[C@@H]1CCCN1Cc1ccc(Oc2ccc(C(N)=O)cc2)cc1
% KOR IVRO to achieve 50% PR reversal, %: 30

Molecule: COc1nn(C)cc1C1CCCN1Cc1ccc(Oc2ccc(C(N)=O)cc2F)cc1 (single isomer, unassigned; (-))
% KOR IVRO to achieve 50% PR reversal, %: 25

Molecule: COc1nn(C)cc1[C@@H]1CCCN1Cc1ccc(Oc2ccc(C(N)=O)cc2)cc1 (single isomer, unassigned)
% KOR IVRO to achieve 50% PR reversal, %: 30

Observed % KOR IVRO to achieve 50% PR reversal, kappa opioid receptor (Mus musculus, UniProt P33534), `Cc1cc([C@@H]2CCCN2Cc2ccc(Oc3ccc(C(N)=O)cc3F)cc2)n(C)n1` : 85

* * *

Target: human kappa opioid receptor (hKOR) (Homo sapiens)
Construct: expressed in transfected cells; host or cells: CHO cells
Sequence (P41145 whole entry): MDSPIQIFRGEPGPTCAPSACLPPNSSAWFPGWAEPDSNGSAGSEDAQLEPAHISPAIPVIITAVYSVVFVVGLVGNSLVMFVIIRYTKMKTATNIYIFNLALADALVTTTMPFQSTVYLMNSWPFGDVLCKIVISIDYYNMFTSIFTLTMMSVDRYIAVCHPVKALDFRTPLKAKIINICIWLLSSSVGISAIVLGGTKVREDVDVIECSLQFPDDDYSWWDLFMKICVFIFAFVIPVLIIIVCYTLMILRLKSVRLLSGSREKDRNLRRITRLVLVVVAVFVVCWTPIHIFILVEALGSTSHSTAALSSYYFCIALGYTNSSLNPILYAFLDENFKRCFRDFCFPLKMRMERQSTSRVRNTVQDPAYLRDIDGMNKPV
Assay: Kappa radioligand binding assay ([3H]diprenorphine, CHO cell membranes)
Conditions: Table 20; radioligand binding; read-out: hKOR binding assay Ki
Measure name: log10 Ki (log10 of the value in nM)
# values: log10(Ki), units nM

// known answers, use as guide
Compound: Cc1cc(C2CCCN2Cc2ccc(Oc3ccc(C(N)=O)cc3F)cc2)on1 (centres unmarked)
Test value: 1.74
//
Compound: NC(=O)c1ccc(Oc2ccc(CN3CCCC3c3ccccc3)cc2)nc1 (centres unmarked)
Test value: 0.76
//
Compound: Cc1cc(C)cc([C@@H]2CCCN2Cc2ccc(Oc3ccc(C(N)=O)cc3F)cc2)c1 [Comparator E, reference compound]
Test value: -0.70
//
Compound: Cc1cc([C@@H]2CCCN2Cc2ccc(Oc3ccc(C(N)=O)cc3F)cc2)n(C)n1
Test value: 0.23

compound NC(=O)c1ccc(Oc2ccc(CN3CCC(c4ccccc4)C3)cc2)nc1 (centres unmarked) [Comparator A, reference compound] , log10 Ki observed: 0.49

Reported log10 Ki of COc1nn(C)cc1[C@@H]1CCCN1Cc1ccc(Oc2ccc(C(N)=O)cc2)cc1 (single isomer, unassigned) : 0.18

log10 Ki in this record for Cc1nn(C)nc1C1CCCN1Cc1ccc(Oc2ccc(C(N)=O)cc2)cc1 (single isomer, unassigned) : -0.15

// recorded log10 Ki for Cc1cc(C2CCCN2Cc2ccc(Oc3ccc(C(N)=O)cc3F)cc2)no1 (centres unmarked) : 2.14
